# TARGET_OR_TEST_SYSTEM: human adenosine A2A receptor (Homo sapiens, UniProt P29274)
# Construct: expressed in transfected cells; host or cells: CHO cells, semliki forest virus expression system; membrane preparation
# Sequence (P29274 whole entry): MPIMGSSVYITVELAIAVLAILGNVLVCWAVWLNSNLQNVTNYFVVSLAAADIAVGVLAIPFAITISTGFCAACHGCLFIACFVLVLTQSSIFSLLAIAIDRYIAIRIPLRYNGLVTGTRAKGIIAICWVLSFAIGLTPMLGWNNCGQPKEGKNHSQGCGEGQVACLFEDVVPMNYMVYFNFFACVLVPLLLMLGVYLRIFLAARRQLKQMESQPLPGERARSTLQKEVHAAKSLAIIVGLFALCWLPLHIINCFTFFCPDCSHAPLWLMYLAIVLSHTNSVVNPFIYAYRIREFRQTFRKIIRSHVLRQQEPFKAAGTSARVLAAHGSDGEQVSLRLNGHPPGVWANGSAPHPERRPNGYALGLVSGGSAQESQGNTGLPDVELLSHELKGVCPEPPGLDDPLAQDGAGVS
# METHOD_NOTES: [3H]-SCH-58261 binding assay, human adenosine A2A receptor (CHO cell membranes, SPA)
# STATED_CONDITIONS: recombinant human A2A receptor in CHO membranes; [3H]-SCH-58261 1 nM; Ki by Cheng-Prussoff equation; read-out: hA2 (pKi) (converted)
# Protocol: Human Adenosine A2A Receptor The human adenosine A2A receptor was recombinantly expressed in Chinese hamster ovary (CHO) cells using the semliki forest virus expression system. […] Assay plates were incubated for 1 hour at room temperature before centrifugation and then bound ligand determined using a Packard Topcount scintillation counter. IC50 values were calculated using a non-linear curve fitting program and Ki values calculated using the Cheng-Prussoff equation.
Reported Ki values for a set of molecules

COc1ccc(N2CCOCC2)c2sc(NC(=O)N(C)C34CC5CC(CC(C5)C3)C4)nc12 [Example 12] :: 50.1 nM
COc1ccc(N2CCOCC2)c2sc(NC(=O)N(C)C3CC4CCC3C4)nc12 (racemic) [Example 6] :: 7.94 nM
COc1ccc(N2CCOCC2)c2sc(NC(=O)N(C)C3CCC(CO)C3)nc12 (racemic) [Example 5] :: 3.98 nM

Next molecule, please.
**Query** Which Ki value is on record for COc1ccc(N2CCOCC2)c2sc(NC(=O)N(C)C3CC4CCC3O4)nc12 (racemic) [Example 9] ?
**Result** 12.6 nM
